System tested: Ba/F3 L858R/T790M/C797S EGFR triple mutant cell line (Homo sapiens, UniProt P00533, T790M/C797S/L858R, cells depend on it)
Sequence (P00533 whole entry T790M/C797S/L858R): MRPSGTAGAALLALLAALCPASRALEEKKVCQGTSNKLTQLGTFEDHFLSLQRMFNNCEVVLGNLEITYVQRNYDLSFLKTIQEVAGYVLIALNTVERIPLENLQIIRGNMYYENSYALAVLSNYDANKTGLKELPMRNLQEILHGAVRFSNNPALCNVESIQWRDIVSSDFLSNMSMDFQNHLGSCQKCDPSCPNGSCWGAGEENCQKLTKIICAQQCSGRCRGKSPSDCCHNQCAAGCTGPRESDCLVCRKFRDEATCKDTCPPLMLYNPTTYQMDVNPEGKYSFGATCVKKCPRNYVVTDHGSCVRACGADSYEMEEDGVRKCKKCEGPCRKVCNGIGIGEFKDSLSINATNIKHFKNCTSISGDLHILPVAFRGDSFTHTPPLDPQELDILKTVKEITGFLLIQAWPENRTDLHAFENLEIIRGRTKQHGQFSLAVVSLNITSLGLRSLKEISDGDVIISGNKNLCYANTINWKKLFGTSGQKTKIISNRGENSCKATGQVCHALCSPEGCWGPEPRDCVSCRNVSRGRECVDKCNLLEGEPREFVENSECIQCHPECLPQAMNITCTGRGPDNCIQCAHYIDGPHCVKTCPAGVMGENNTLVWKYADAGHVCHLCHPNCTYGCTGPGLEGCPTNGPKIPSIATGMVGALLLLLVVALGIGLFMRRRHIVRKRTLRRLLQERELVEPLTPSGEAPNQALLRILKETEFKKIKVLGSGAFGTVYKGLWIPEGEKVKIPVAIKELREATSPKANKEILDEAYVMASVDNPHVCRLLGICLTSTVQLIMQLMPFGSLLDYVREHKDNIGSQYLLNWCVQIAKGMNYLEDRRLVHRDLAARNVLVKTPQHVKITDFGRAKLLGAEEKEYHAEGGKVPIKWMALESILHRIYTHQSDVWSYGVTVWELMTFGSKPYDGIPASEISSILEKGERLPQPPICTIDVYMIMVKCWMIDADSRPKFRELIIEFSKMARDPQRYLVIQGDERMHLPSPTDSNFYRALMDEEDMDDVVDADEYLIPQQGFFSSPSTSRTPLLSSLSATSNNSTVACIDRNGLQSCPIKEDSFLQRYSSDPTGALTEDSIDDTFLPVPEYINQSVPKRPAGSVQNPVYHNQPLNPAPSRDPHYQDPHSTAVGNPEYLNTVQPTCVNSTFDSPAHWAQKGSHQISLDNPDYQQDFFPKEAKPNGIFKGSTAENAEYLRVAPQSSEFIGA
Assay text: Cell proliferation inhibition experiment (CellTiter-Glo), Ba/F3 L858R/T790M/C797S
Format: cell-based
Assay context: 72 hours, Cell Titer-Glo, read-out: Ba/F3 (L858R/T790M/C797S) IC50
Protocol: 3) 30 nL of gradient diluted compound was transferred into the 384-well experimental plate using Echo 550 (Labcyte) at a DMSO final concentration of 0.1%, and the culture plate was incubated in a cell incubator for 72 hours (37° C., 5% CO2). 4) 30 μL of Cell Titer-Glo reagent was added to each well and left for 30 minutes at room temperature and protected from light. 5) Envision microplate reader (PerkinElmer) detected chemiluminescence signals. […]
Measurement type: GI50 (nM)

CCOP(C)(=O)c1c(Nc2nc(Nc3cc(-c4cnn(C)c4)c(N4CCOCC4)c(F)c3OC)ncc2Br)ccc2nccnc12 (stereo not drawn)	139
COc1cc(N2CCC3(CCN(CC(F)(F)F)CC3)CC2)c(-c2cnn(C)c2)cc1Nc1ncc(Br)c(Nc2ccc3nccnc3c2P(C)(C)=O)n1	11.6
COc1cc(N2CCOC[C@H]2C)c(-c2cnn(C)c2)cc1Nc1ncc(Br)c(Nc2ccc3nccnc3c2P(C)(C)=O)n1	17.7

[I] COc1cc(N2CC(C)OC(C)C2)c(-c2cnn(C)c2)cc1Nc1ncc(Br)c(Nc2ccc3nccnc3c2P(C)(C)=O)n1 (racemic) [compound 135]
[II] COc1cc(N2C[C@@H](C)O[C@@H](C)C2)c(-c2cnn(C)c2)cc1Nc1ncc(Br)c(Nc2ccc3nccnc3c2P(C)(C)=O)n1
[III] COc1cc(N2CCN(C(=O)C3CC3)CC2)c(-c2cnn(C)c2)cc1Nc1ncc(Br)c(Nc2ccc3nccnc3c2P(C)(C)=O)n1
[IV] Cn1cc(-c2cc(Nc3ncc(Br)c(Nc4ccccc4P(C)(C)=O)n3)c(OCC(F)(F)F)nc2N2CCOCC2)cn1
[V] COc1c(Nc2ncc(Br)c(Nc3ccc4nccnc4c3P(C)(C)=O)n2)cc(-c2cnn(C)c2)c(N2CCOCC2)c1C
INPUT: Ascending sort, GI50. Respond with the label ranking, as requested.
OUTPUT: II, III, I, IV, V
(II: 4.79 nM, III: 8.15 nM, I: 13.3 nM, IV: 82 nM, V: 372 nM)
